- Test system: Glycogen synthase kinase-3 alpha (Homo sapiens) (UniProt P49840)
- Sequence (P49840 whole entry, looked up): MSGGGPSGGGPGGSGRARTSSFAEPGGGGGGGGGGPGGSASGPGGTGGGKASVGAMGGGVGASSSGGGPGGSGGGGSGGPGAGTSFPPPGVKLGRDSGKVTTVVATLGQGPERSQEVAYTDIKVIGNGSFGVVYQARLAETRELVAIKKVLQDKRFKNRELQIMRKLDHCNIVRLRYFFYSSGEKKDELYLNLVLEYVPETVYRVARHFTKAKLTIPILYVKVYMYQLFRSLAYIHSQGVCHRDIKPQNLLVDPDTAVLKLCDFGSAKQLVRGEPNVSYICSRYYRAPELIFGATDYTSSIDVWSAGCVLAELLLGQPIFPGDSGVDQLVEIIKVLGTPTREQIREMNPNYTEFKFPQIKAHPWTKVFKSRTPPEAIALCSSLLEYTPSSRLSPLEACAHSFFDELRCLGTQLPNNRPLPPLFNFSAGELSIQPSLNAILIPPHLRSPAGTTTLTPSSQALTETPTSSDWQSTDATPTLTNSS
- Protocol notes: concentration-response blocking of human GSK3A – biochemical, luminescence, cell-free homogeneous, retest, dose response (AID 463203)
- Recorded conditions: GSK-3 alpha enzyme, ADP-Glo luminescence, 60 min
The source made the active and inactive calls.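 The calls were made as follows: active = more than half of replicate measurements showing over 20% loss of kinase signal relative to plate controls; inconclusive = some but at most half of replicates over 20% loss; inactive = no replicate over 20% signal loss.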
Classes used: 1 for active, 0 for inactive

{"Compound": "CSc1nc2n(n1)C(c1ccccn1)C1=C(CC(C)(C)CC1=O)N2 (stereo unspecified)", "Cat": 0}
{"Compound": "O=C(NCc1ccc(C(=O)N2CCC3(CC2)OCCO3)cc1)c1ccc2c(c1)OCO2", "Cat": 0}
{"Compound": "N#CC1=C2SCN(Cc3ccco3)CN2C(=O)CC1c1ccc(Cl)cc1 (stereo unspecified)", "Cat": 0}
{"Compound": "O=C1OCCC1Sc1nnc(-c2ccc3c(c2)OCO3)o1 (stereo unspecified)", "Cat": 1}
{"Compound": "Cc1cnn(-c2cc(N/N=C/c3ccc(F)cc3)ncn2)c1", "Cat": 0}
{"Compound": "O=C(Nc1ccccc1C(=O)NC1CCCCC1)c1ccccc1", "Cat": 0}
{"Compound": "COc1ccc(CCNc2cc(C)nc(N)n2)cc1OC", "Cat": 0}
{"Compound": "CCOC(=O)c1ccc(N2CSC3=C(C#N)C(c4ccc(OC)cc4OC)CC(=O)N3C2)cc1 (stereo unspecified)", "Cat": 0}
{"Compound": "Cc1ccc(-c2nc3ncccn3c2Nc2ccc3c(c2)OCCO3)cc1", "Cat": 0}
{"Compound": "CC(C)C(=O)Nc1cccc2nsnc12", "Cat": 0}
{"Compound": "CCc1ccc(NC(=S)NC(=O)CC(C)C)cc1", "Cat": 0}
